Cited source: PubChem BioAssay (NCI)

# System: T-47D breast
# experimentalDetails: NCI tumour cell line growth inhibition, 48 h
assayMetric: GI50

[in] Would you mind telling me what GI50 value was observed for `Cn1c2ccccc2c2c3[nH][nH]c(=O)c3c3c4ccccc4[nH]c3c21` ?
[out] 2050 nM

[in] Would you mind telling me what GI50 value was observed for `CCOC(=O)c1c(C)nc2c(c1N)CC(=O)N2CCc1ccccc1` ?
[out] 962 nM

[in] Would you mind telling me what GI50 value was observed for `CN1CCN(c2nc(NCCCNc3ccnc4cc(Cl)ccc34)c3ccccc3n2)CC1` ?
[out] 2390 nM

[in] Would you mind telling me what GI50 value was observed for `CCCCNC(=O)c1cc(NCc2cc(O)ccc2O)ccc1O` ?
[out] 6390 nM

[in] Would you mind telling me what GI50 value was observed for C=CC/C(=C\COP(=O)(OCc1ccc([N+](=O)[O-])o1)N(C)CCCCCl)CC/C=C(\C)CCC=C(C)C (stereo not given) ?
[out] 20600 nM

---

# System: K-562 leukemia
# experimentalDetails: NCI tumour cell line growth inhibition, 48 h
Record form. Attribute: TGI. Fill in for each entry.

[in] Would you mind telling me what TGI value was observed for `COc1cc(N2CCN(C(C)C)CC2)ccc1Nc1nc(Nc2cccc(F)c2C(=O)O)c2cc[nH]c2n1` ?
[out] > 25 µM

[in] Would you mind telling me what TGI value was observed for `N=C(N)c1ccc(NCCOCCNc2ccc(C(=N)N)cc2)cc1` ?
[out] > 100 µM

[in] Would you mind telling me what TGI value was observed for COC(=O)C1=CN(C2CCCCC2)C2(c3ccccc3)c3ccccc3C(=O)OC(=O)C12 (stereo not given) ?
[out] > 100 µM

[in] Would you mind telling me what TGI value was observed for `COc1ccccc1N=N/C(=N\NC(=O)c1ccc(C)cc1)c1ccc(N(CCC#N)CCC#N)cc1C` ?
[out] > 100 µM

[in] Would you mind telling me what TGI value was observed for C[C@]12CC[C@H]3[C@@H](C[C@@H]4SC(Nc5ccccc5)=N[C@@]45CC(O)CC[C@]35C)[C@@H]1CCC2O (stereo not given in full) ?
[out] 12.6 µM

[in] Would you mind telling me what TGI value was observed for CN(C)CC(C(=O)Cc1ccccc1)c1ccccc1 (stereo not given) ?
[out] > 100 µM

[in] Would you mind telling me what TGI value was observed for CC12CO[C@@](C)(CC(S(=O)(=O)c3ccccc3)C1)O2 (stereo not given in full) ?
[out] > 100 µM

[in] Would you mind telling me what TGI value was observed for `CCOc1ccc(N=NS(=O)(=O)O)cc1` ?
[out] > 100 µM

[in] Would you mind telling me what TGI value was observed for `CCN(CC)CCN(Cc1ccc(F)cc1)c1ccc(CO)c(Cl)c1` ?
[out] 41.5 µM

[in] Would you mind telling me what TGI value was observed for CC(C)(C)OC(=O)C1=C2C=C(O)C=CC2(C)N(Cc2ccccc2)C1=N (stereo not given) ?
[out] > 32.9 µM

---

# Test system: HCT-15 colon
# experimentalDetails: NCI tumour cell line growth inhibition, 48 h; in the data active = GI50 below about 0.43 µM; inactive = the rest
Outcome field: choose from TRUE = active, FALSE = inactive

[in] Record request — test call for Cc1[nH]c(-c2nc3ccccc3[nH]2)c(C)c1C(=O)NC(C)C1CCCCC1 (stereo unspecified)
[out] FALSE

[in] Record request — test call for `COc1cc2ncnc(Nc3ccc4c(cnn4Cc4ccccc4)c3)c2cc1OC`
[out] FALSE

[in] Record request — test call for `COc1cc(-c2n/c(=C\c3c(O)[nH]c4cc(Cl)ccc34)cc3c2=Nc2ccccc2-3)cc(OC)c1OC`
[out] FALSE

[in] Record request — test call for `CCOC(=O)c1c(C)nc2c(c1N)CC(=O)N2CCc1ccccc1`
[out] FALSE

[in] Record request — test call for COC(=O)/C=C1/SC(N2N=C(c3cccs3)CC2c2ccc(F)cc2)=NC1=O (stereo unspecified)
[out] FALSE

[in] Record request — test call for `COc1cc(-c2cc(/C=C/C(=O)c3ccc(Cl)c(Cl)c3)[nH]n2)cc(OC)c1OC`
[out] FALSE

[in] Record request — test call for `COCCN1CCN(Cc2ccc(-c3n[nH]c4c3C(=O)c3c(NC(=O)NN5CCOCC5)cccc3-4)cc2)CC1`
[out] TRUE

[in] Record request — test call for `CCCCC(=O)N/N=C/c1c(O)ccc2ccccc12`
[out] FALSE

[in] Record request — test call for `CCCCNC(=O)c1cc(NCc2cc(O)ccc2O)ccc1O`
[out] FALSE

[in] Record request — test call for `COc1cc(N2CCN(C(C)C)CC2)ccc1Nc1nc(Nc2cccc(F)c2C(=O)O)c2cc[nH]c2n1`
[out] FALSE

[in] Record request — test call for `CCc1cc2ncc(CN3CCN(c4ccc(C(=O)NC)nc4)CC3)cc2[nH]c1=O`
[out] FALSE

[in] Record request — test call for C[C@]12CC[C@H]3[C@@H](C[C@@H]4SC(Nc5ccccc5)=N[C@@]45CC(O)CC[C@]35C)[C@@H]1CCC2O (stereo partly specified)
[out] FALSE

[in] Record request — test call for `O=S1(=O)CS(=O)(=O)OCCO1`
[out] FALSE

[in] Record request — test call for COc1cc(C2C3=C(COC3=O)Nc3c2ccc2c3CCCC2)cc2c1OCO2 (stereo unspecified)
[out] TRUE

[in] Record request — test call for `O=C1Nc2ccccc2/C1=C\c1nc(C2CCN(S(=O)(=O)c3ccc(F)cc3)CC2)n2ccccc12`
[out] FALSE

[in] Record request — test call for `COc1ccc2c(Cl)cc(NC(=O)Nc3c(C)cccc3C)nc2c1`
[out] FALSE

[in] Record request — test call for `Cc1cc(N2CCCC2)nc(NCc2cc(Nc3ccnc4cc(Cl)ccc34)ccc2F)n1`
[out] FALSE

[in] Record request — test call for `COc1ccc(/C=C2\CN(Cc3cn(CCNc4ccnc5cc(Cl)ccc45)nn3)C/C(=C\c3ccc(OC)c(OC)c3)C2=O)cc1OC`
[out] FALSE

[in] Record request — test call for `C/C(=N\NC(=S)N1CC2CCC(CC2)C1)c1cccc(C)n1`
[out] TRUE

[in] Record request — test call for `CCCNC(=O)c1ccc(Cl)cc1Cl`
[out] FALSE

[in] Record request — test call for `N=C(N)c1ccc(NCCOCCNc2ccc(C(=N)N)cc2)cc1`
[out] FALSE

---

# Test system: HS 578T breast
# experimentalDetails: NCI tumour cell line growth inhibition, 48 h
assayMetric: TGI (µM)
Report the value in µM with no unit label.

[in] Would you mind telling me what TGI value was observed for `NC(=O)/C=c1/c2ccccc2n2nc3ccccc3c12` ?
[out] 87.6

[in] Would you mind telling me what TGI value was observed for `O=c1c2cc(I)ccc2nc(SCc2n[nH]c(=S)o2)n1Cc1ccccc1` ?
[out] 44.3

[in] Would you mind telling me what TGI value was observed for Cc1[nH]c(-c2nc3ccccc3[nH]2)c(C)c1C(=O)NC(C)C1CCCCC1 (stereo not given) ?
[out] 30.9

[in] Would you mind telling me what TGI value was observed for `CC(=O)ON1C(=O)c2cccc3cccc(c23)C1=O` ?
[out] 79.3

[in] Would you mind telling me what TGI value was observed for Cc1ccc(C(SCC(N)C(=O)O)(c2ccccc2)c2ccccc2)cc1 (stereo not given) ?
[out] 0.913

[in] Would you mind telling me what TGI value was observed for `N#Cc1c(Cl)nc2ccccc2c1N=[N+]=[N-]` ?
[out] 17.3

[in] Would you mind telling me what TGI value was observed for `CCN(CC)c1ccc2cc(-c3nnc(-c4ccccc4O)o3)c(=O)oc2c1` ?
[out] 57.6

[in] Would you mind telling me what TGI value was observed for `O=C1Nc2ccccc2/C1=C\c1nc(C2CCN(S(=O)(=O)c3ccc(F)cc3)CC2)n2ccccc12` ?
[out] 5.78

[in] Would you mind telling me what TGI value was observed for `COC1=CC(=O)c2c(c(COP(=O)(N(C)CCBr)N(C)CCBr)cn2C)C1=O` ?
[out] 2.93

[in] Would you mind telling me what TGI value was observed for `COCCN1CCN(Cc2ccc(-c3n[nH]c4c3C(=O)c3c(NC(=O)NN5CCOCC5)cccc3-4)cc2)CC1` ?
[out] 1.22

[in] Would you mind telling me what TGI value was observed for Cc1ccc(C2=C(c3ccccc3)C(c3ccccc3)Oc3ccc(C)cc32)cc1 (stereo not given) ?
[out] 10.1

[in] Would you mind telling me what TGI value was observed for `O=[N+]([O-])/C(C(Cl)=C(Cl)Cl)=C(\Nc1ccccc1)n1nnc2ccccc21` ?
[out] 38.7

---

# Test system: SNB-19 CNS
# experimentalDetails: NCI tumour cell line growth inhibition, 48 h
assayMetric: TGI (µM)
Report the value in µM with no unit label.

[in] # query: TGI | item CCCCCCCCCCCCCCCC(=O)OCC1OC(OC)C2NP(=O)(N(CCCl)CCCl)OC1C2O (stereo not given) | system: SNB-19 CNS
[out] 65.6

[in] # query: TGI | item `N=C(N)c1ccc(-c2ccc(-c3cccs3)s2)s1` | system: SNB-19 CNS
[out] 3.07

[in] # query: TGI | item Cc1[nH]c(-c2nc3ccccc3[nH]2)c(C)c1C(=O)NC(C)C1CCCCC1 (stereo not given) | system: SNB-19 CNS
[out] 24.8
